The measurements presented in this section are drawn from ChEMBL document CHEMBL1129593.

IC50 values, listed per item
molecular target: Sodium-dependent serotonin transporter (Rattus norvegicus, UniProt P31652); assay: Compound was tested for inhibition of [3H]citalopram binding at the serotonin transporter in rat fore brain membranes; type: cell membranes, Membrane
Sequence (P31652 whole entry): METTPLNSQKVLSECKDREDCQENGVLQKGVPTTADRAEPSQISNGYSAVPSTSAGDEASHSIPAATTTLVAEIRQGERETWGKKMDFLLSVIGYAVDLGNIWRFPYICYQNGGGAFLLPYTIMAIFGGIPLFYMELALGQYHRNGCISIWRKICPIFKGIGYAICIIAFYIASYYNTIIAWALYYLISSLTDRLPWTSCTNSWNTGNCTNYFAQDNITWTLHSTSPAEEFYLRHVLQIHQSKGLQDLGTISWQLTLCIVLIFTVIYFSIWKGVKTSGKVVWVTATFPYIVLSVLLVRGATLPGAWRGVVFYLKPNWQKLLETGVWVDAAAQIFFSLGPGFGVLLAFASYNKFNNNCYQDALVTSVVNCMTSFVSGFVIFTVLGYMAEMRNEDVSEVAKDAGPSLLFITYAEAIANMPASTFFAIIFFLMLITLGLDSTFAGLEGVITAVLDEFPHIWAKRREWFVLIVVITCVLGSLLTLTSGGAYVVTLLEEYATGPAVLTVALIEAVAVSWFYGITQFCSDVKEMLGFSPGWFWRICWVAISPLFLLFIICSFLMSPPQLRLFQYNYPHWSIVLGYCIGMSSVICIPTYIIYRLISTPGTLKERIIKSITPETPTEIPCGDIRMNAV
metric: IC50 (µM)

In [3]: df
Out[3]:
                                   compound  measured_result
0  OC1(c2ccc(Cl)cc2)c2ccccc2C2=NCCCN21 (configuration not stated)             1.04
1  OC1(c2ccc(Cl)cc2)c2ccccc2C2=NCCCCN21 (configuration not stated)             1.25

----------
target: Sodium-dependent dopamine transporter (Rattus norvegicus); assay: Inhibition of [3H]dopamine uptake at the dopamine transporter in rat striatal tissue; assay type: functional, tissue-based, Striatum
Sequence (P23977 whole entry): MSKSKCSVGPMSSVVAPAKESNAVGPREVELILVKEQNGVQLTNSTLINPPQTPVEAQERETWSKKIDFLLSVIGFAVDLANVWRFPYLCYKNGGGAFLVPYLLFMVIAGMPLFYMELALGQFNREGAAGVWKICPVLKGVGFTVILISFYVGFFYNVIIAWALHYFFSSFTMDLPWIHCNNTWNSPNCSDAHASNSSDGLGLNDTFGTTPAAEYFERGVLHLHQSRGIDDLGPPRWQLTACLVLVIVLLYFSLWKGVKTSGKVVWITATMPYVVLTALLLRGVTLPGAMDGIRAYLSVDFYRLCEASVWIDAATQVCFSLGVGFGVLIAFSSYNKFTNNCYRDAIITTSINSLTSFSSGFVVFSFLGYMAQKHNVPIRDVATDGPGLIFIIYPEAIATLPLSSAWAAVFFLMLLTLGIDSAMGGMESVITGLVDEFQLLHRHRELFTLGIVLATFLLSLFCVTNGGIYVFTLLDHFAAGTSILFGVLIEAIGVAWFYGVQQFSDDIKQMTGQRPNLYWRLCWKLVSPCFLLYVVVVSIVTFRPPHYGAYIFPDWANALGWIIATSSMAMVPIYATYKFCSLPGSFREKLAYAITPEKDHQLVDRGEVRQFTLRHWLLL
pIC50: −log10 of the molar value.
metric: pIC50

In [3]: df
Out[3]:
                                    compound  metric  measured_result
 0  OC1(c2ccccc2)c2c(Cl)cccc2C2=NCCN21 (stereo unspecified)   pIC50             7.24
 1  OC1(c2ccc(Cl)cc2)c2ccccc2C2=NCCCN21 (stereo unspecified)   pIC50             8.85
 2  OC1(c2ccccc2)c2ccccc2C2=NCCCN21 (stereo unspecified)   pIC50             7.74
 3  OC1(c2ccc(I)cc2)c2ccccc2C2=NCCN21 (stereo unspecified)   pIC50             7.85
 4  OC1(c2ccc(Cl)c(Cl)c2)c2ccccc2C2=NCCN21 (stereo unspecified)   pIC50             8.85
 5  OC1(c2cccc(F)c2)c2ccccc2C2=NCCCN21 (stereo unspecified)   pIC50             8.51
 6  OC1(c2ccc(Cl)cc2)c2ccccc2C2=NCCCCN21 (stereo unspecified)   pIC50             8.47
 7  OC1(c2ccc(Br)cc2)c2ccccc2C2=NCCN21 (stereo unspecified)   pIC50             8.07
 8  OC1(c2ccc(Cl)c(Cl)c2)c2ccccc2C2=NCCCCN21 (stereo unspecified)   pIC50             9.59
 9  OC1(c2ccccc2)c2cc(F)ccc2C2=NCCN21 (stereo unspecified)   pIC50             7.11
10  OC1(c2ccccc2Cl)c2ccccc2C2=NCCN21 (stereo unspecified)   pIC50             6.11
